Emax for assorted compounds
Target: TRAP1 enzyme (Homo sapiens)
Construct: 150 nM Trap1 enzyme was incubated with various concentrations of the test compound
Sequence (Q12931 60-704): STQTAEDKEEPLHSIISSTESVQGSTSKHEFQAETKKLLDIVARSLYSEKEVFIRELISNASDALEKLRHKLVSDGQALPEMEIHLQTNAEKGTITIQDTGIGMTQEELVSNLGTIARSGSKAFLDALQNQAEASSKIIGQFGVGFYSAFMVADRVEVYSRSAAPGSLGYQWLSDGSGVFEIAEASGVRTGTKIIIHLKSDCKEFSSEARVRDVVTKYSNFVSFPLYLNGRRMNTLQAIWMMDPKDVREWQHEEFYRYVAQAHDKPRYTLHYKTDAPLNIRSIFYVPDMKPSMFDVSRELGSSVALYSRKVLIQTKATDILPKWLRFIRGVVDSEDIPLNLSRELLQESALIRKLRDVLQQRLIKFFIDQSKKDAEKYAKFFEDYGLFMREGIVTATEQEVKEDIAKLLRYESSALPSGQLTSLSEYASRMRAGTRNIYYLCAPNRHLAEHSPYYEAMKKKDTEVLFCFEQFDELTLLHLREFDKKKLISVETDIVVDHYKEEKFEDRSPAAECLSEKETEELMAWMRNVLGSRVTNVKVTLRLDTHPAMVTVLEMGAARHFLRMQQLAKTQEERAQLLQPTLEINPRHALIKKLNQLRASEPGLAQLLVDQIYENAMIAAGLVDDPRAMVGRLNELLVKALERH
Test: ADP Glo assay of TRAP1 ATPase activity
Format: biochemical
Conditions: maximal percent activation; read-out: ADP GLO DRC: Mean Emax
RESULT_TYPE: Emax

# SMILES_INPUT, DATA_VALUE
rows = [
    ("COc1ncc(NC(=O)c2coc(-c3ccccc3)n2)cc1S(=O)(=O)Nc1ncc(Cl)cc1F", "200 to 300%"),
    ("COc1ncc(NC(=O)c2ncc(-c3ccccc3)o2)cc1S(=O)(=O)Nc1ccc(F)cc1C(C)C", "160 to 199%"),
    ("COc1cccc(OC)c1NS(=O)(=O)c1cc(NC(=O)c2ncc(-c3ccccc3)o2)cnc1OC", "119 to 159%"),
    ("COc1ncc(NC(=O)c2ccc(Cn3cc(Cl)cn3)cc2)cc1S(=O)(=O)Nc1c(C)cccc1C", "160 to 199%"),
    ("COc1ncc(NC(=O)c2ncc(-c3ccccc3)o2)cc1S(=O)(=O)Nc1cc(-c2ccccc2C)nn1C", "200 to 300%"),
    ("COc1ncc(NC(=O)c2csc(-c3ccccc3)n2)cc1S(=O)(=O)Nc1cc(C(F)(F)F)n[nH]1", "200 to 300%"),
    ("COc1ncc(NC(=O)c2ncc(-c3ccccc3)o2)cc1S(=O)(=O)Nc1cc2ccccc2nc1C", "119 to 159%"),
]
